System: NCI-H460 lung
Choose the fitting class; nothing outside true = active, false = inactive is accepted.

Solved cases below.
compound: COCCNc1ccc2c3c(cccc13)C(=O)N(CCN(C)C)C2=O
group.label: false
//
compound: N/C(=N/N=C/c1ccccc1)N/N=C\c1ccccc1
group.label: false
//
compound: C=C1C(=O)O[C@H]2C[C@@H]1CC/C(C)=C/CC/C(C)=C/CC[C@@]2(C)O
group.label: false
//
compound: COc1ccc2cc(C(=O)/C=C/c3ccc(N(C)C)cc3)ccc2c1
group.label: false
//
compound: COc1ccc2c(O)c(/C=C3\N=Nc4ccccc43)oc2c1C[C@@H]1CCNC[C@H]1F
group.label: false
//
compound: CCCc1cc(=O)n2c(C(=O)Nc3cccc(C(=O)OCC)c3)c(C(=O)Nc3ccc(F)cc3)sc2n1
group.label: false

Query block: Assay outcome for CC(C)(C)[Si](C)(C)OC1[C@@H](O[Si](C)(C)C(C)(C)C)[C@@H](CNC(=O)NC(=O)CF)O[C@H]1n1cnc2c(NC(=O)Nc3ccccc3)ncnc21 (stereo not given in full) : what was it?
Result block: false

Query block: Which outcome did this test record for the compound CC/C(=C(/c1ccc(O)cc1)c1ccc(OCCN)cc1)c1ccccc1 ?
Result block: false

Query block: What did the test return for CC1=CCCC2C1(C)CCC(C)C2(C)Cc1cc(O)ccc1O (stereo not given) ?
Result block: false

Query block: Assay result, entry COc1cc(C(=O)N2CCN(c3ccccc3)CC2)c2ccccc2n1 — outcome?
Result block: true

* * *

System: MALME-3M melanoma
protocol.summary: NCI tumour cell line growth inhibition, 48 h
assay.readout: TGI

// below: answered compounds
compound: COc1ccc(Nc2cc(C)nc(NCc3ccccc3)n2)cc1
TGI: 9.2 µM

compound: CCOC(=O)NC/C=C/COC1CCCCO1 (stereo unspecified)
TGI: > 100 µM

compound: COCCNc1ccc2c3c(cccc13)C(=O)N(CCN(C)C)C2=O
TGI: 21.1 µM

compound: NC(=O)/C(=N\NC(=O)C[n+]1ccccc1)C1NC(=O)NC1=O (stereo unspecified)
TGI: > 100 µM

compound: CCCCCCCCC/C(=N\NC(=O)c1ccncc1)c1ccc(O)c(O)c1O
TGI: > 100 µM

# next compound below
In plain terms, COc1cc2c(cc1OCCCOS(C)(=O)=O)N=C[C@@H]1CCCN1C2=O has a documented TGI of > 100 µM

* * *

Catalogue of compounds with associated GI50
Test system: OVCAR-3 ovarian
protocol.summary: NCI tumour cell line growth inhibition, 48 h

compound: COc1cccc(/C=N/NC(=O)c2ccccc2N2CCCC2)c1O
GI50: 3.3 µM
//
compound: COc1ccc2c(c1)CC[C@@H]1[C@@H]2CC[C@]2(C)c3c(cc(C(=O)O)c4sccc34)C[C@@H]12
GI50: 24.7 µM
//
compound: O=C(Nc1ccc(-n2cc(-c3ccncc3)c(-c3ccc(O)c(Cl)c3)n2)cc1)Nc1ccc(Cl)c(C(F)(F)F)c1
GI50: 3.23 µM

Shifting focus to the compound that follows.
Form: compound = CC(C)(C)[Si](C)(C)OC1[C@@H](O[Si](C)(C)C(C)(C)C)[C@@H](CNC(=O)NC(=O)CF)O[C@H]1n1cnc2c(NC(=O)Nc3ccccc3)ncnc21 (some centres undefined) ; GI50 = 11.1 µM

* * *

Tested on: SK-MEL-2 melanoma
protocol.summary: NCI tumour cell line growth inhibition, 48 h
Where a SMILES comes first, the peptide text is derived from it. Bridges are numbered along the chain shown (N, C = ends). [ ]: non-standard residue; d: D form. The star is where a group is joined. ξ: configuration not given here. ξDab(CH2SO3H) = NC(CCNCS(=O)(=O)O)C(=O)O; Heptanoyl(6-Me) = CC(C)CCCCC(=O)*; Dab = NCC[CH](N)C(=O)O
assay.readout: TGI

See these solved cases before continuing.
compound: N#Cc1c(N2CCOCC2)nc(=S)[nH]c1-c1ccccc1
TGI: > 100 µM
--
compound: COC(=O)C1=COC(C)C2CN3CCc4c([nH]c5cc(OC)c(OC)cc45)C3CC12 (stereo not given)
TGI: > 100 µM
--
compound: CCC(C)C1NC(=O)C(CCNCS(=O)(=O)O)NC(=O)C(NC(=O)C(CCNCS(=O)(=O)O)NC(=O)C(NC(=O)C(CCNCS(=O)(=O)O)NC(=O)CCCCC(C)C)C(C)O)CCNC(=O)C(C(C)O)NC(=O)C(CCNCS(=O)(=O)O)NC(=O)C(CCNCS(=O)(=O)O)NC(=O)C(C(C)CC)NC1=O (stereo not given) ({Heptanoyl(6-Me)}-[ξDab(CH2SO3H)]T[ξDab(CH2SO3H)][Dab][ξDab(CH2SO3H)]II[ξDab(CH2SO3H)][ξDab(CH2SO3H)]T; lactam 4-C; configuration not given here)
TGI: > 25 µM

Lab note: measured TGI of CC(=O)Nc1c(I)c(NC(C)=O)c(I)c(C(=O)O)c1I was > 100 µM

TGI measured on O=C(c1ccccc1)C(c1ccccc1)C1(O)C(=O)Nc2ccc([N+](=O)[O-])cc21 (stereo not given) = > 100 µM

# compound C=C1C(=O)O[C@H]2C[C@@H]1CC/C(C)=C/CC/C(C)=C/CC[C@@]2(C)O ; its TGI = > 100 µM

Kindly note the recorded TGI for COc1ccc2c(c1)oc(=O)c1cc(OC)ccc12 , which is > 100 µM

* * *

Tested on: NCI-H23 lung
protocol.summary: NCI tumour cell line growth inhibition, 48 h; in the data active means GI50 below about 0.43 µM; inactive means the rest
A correct response names exactly one class from YES for active, NO for inactive

Record excerpt, results attached:
compound: Cc1cc(Nc2ncc3c(n2)N(C)C(=O)N(c2cc(NC(=O)c4cccc(C(F)(F)F)c4)ccc2C)C3)n(C)n1
group.label: YES

compound: COc1ccc2c(O)c(/C=C3\N=Nc4ccccc43)oc2c1C[C@@H]1CCNC[C@H]1F
group.label: NO

compound: COc1cc2c(cc1Cc1cccc(Cl)c1F)c(=O)c(C(=O)O)cn2[C@@H](CO)C(C)C
group.label: NO

compound: C#CCN(Cc1nc2cc(C(F)(F)F)ccc2nc1-c1ccccc1)c1ccc(C)cc1
group.label: NO

compound: CC1=CCCC2C1(C)CCC(C)C2(C)Cc1cc(O)ccc1O (stereo not given)
group.label: NO

compound: O=[N+]([O-])c1ccc(C2CC(c3ccccc3)=Nc3ccccc3S2)cc1 (stereo not given)
group.label: NO

compound: CN1CCC2(CC1)NC(=O)c1c(c3ccc(Cl)c(Cl)c3n1C)C2C#N (stereo not given)
group.label: NO

compound: [Cl][Hg][c]1ccc(Cl)s1
group.label: NO

compound: CCCCCCCCC/C(=N\NC(=O)c1ccncc1)c1ccc(O)c(O)c1O
group.label: YES

Moving on to another compound below.
Query block: Lab log entry: O=C(Nc1ccc(-n2cc(-c3ccncc3)c(-c3ccc(O)c(Cl)c3)n2)cc1)Nc1ccc(Cl)c(C(F)(F)F)c1 — outcome as called in the assay?
Result block: NO

* * *

Tested on: T-47D breast
protocol.summary: NCI tumour cell line growth inhibition, 48 h
assay.readout: TGI

// worked examples, TGI included
molecule: O=C(OCc1ccc([N+](=O)[O-])cc1)N1c2ccccc2[C@@]23O[C@]24CCC[C@H]3C#C/C=C\C#C[C@H]14
experimental.result: > 100 µM
--
molecule: COc1cc2oc(-c3ccc4c(c3)OCO4)c(OC)c(=O)c2c(OC)c1O
experimental.result: > 100 µM
--
molecule: CCN(CC)C1CCC(C2c3cc4c(cc3OC(N3CCOCC3)C2C)OCO4)CC1 (centres undefined)
experimental.result: > 96.7 µM
--
molecule: COc1ccc(Cn2cc3c(c2-c2ccccc2)CCc2cnoc2-3)cc1OC
experimental.result: 71.2 µM

For reference, reported TGI for CC1=NN(c2ccc(S(=O)(=O)O)cc2)C(=O)/C1=C/c1ccc(Cl)cc1 stands at > 100 µM

Memo: CN(C)CCCNc1ncnc2c1ncn2C1OC(CO)C(O)C1O (centres undefined) , reported TGI: > 100 µM

Item: COC(=O)C1=C(OC(=O)/C(=C/c2ccccc2)c2ccc(Cl)cc2)C(C(=O)OC)[C@@]2(O)[C@@H](C(=O)OC)[C@H](C)C[C@@H]1[C@@H]2C(=O)OC (some centres undefined) | TGI: > 100 µM

TGI measured on CCOC(=O)c1cc(C(=O)c2cc(OC)c(OC)c(OC)c2)n2c1ccc1ccccc12 = > 100 µM

Entry under test: O=C(O)CCc1nc2ccccc2[nH]1 . Its TGI was > 100 µM

* * *

Test system: HOP-92 NSCLC
protocol.summary: NCI tumour cell line growth inhibition, 48 h
assay.readout: log10(TGI) (log10 of the value in µM)
In plain terms, each number is the log10 of measured TGI in µM.

In the examples that follow, each entry is paired with its recorded log10(TGI).
compound: COc1ccc(OC)c(C2CCc3c(cnc4nc(N)nc(N)c34)C2)c1 (stereo unspecified)
assay.readout: log10(TGI)
experimental.result: 1.42

compound: COc1ccc2c(c1)[nH]c(=O)c1c3ccccc3cn21
assay.readout: log10(TGI)
experimental.result: 1.20

Test item N#CC1=C(c2ccccc2)C(=C2Nc3ccccc3N2)C2S/C(=C\c3ccccc3)C(=O)N2C1=N (stereo unspecified) ; HOP-92 NSCLC; reported log10(TGI) was 0.43

Test item CCOC(=O)C1C(C)C2(C#N)C(=N)OC1(C)C2(C#N)C#N (stereo unspecified) ; HOP-92 NSCLC; reported log10(TGI) was 1.99

So the reported log10(TGI) for CC(C)(C)[Si](C)(C)OC1[C@@H](O[Si](C)(C)C(C)(C)C)[C@@H](CNC(=O)NC(=O)CF)O[C@H]1n1cnc2c(NC(=O)Nc3ccccc3)ncnc21 (stereo partly specified) , on HOP-92 NSCLC, turned out to be 1.30

// returns log10(TGI) for NC(=O)c1cccc(N=c2oc3ccc(Br)cc3cc2-c2nc3ccccc3[nH]2)c1 with HOP-92 NSCLC; value = 1.56

Given the compound O=C(O)c1nc2ccc(C(F)(F)F)cc2nc1NCc1ccc(Cl)c(Cl)c1 and test system HOP-92 NSCLC, the measured log10(TGI) is 1.51

Log: HOP-92 NSCLC, compound COc1cc(C(=O)N2CCN(c3ccccc3)CC2)c2ccccc2n1 , log10(TGI) = 1.47

Form: item Nc1ccc(Oc2ccc(C3(c4ccc(Oc5ccc(N)cc5)cc4)C4CC5CC(C4)CC3C5)cc2)cc1 ; test system HOP-92 NSCLC; log10(TGI): 1.56

HOP-92 NSCLC data for CC[C@@]1(O)C(=O)OCc2c1cc1n(c2=O)Cc2cc3cccc([N+](=O)[O-])c3nc2-1 ; its log10(TGI): 1.71

Bench note, HOP-92 NSCLC: entry COc1ccc2c(O)c(/C=C3\N=Nc4ccccc43)oc2c1C[C@@H]1CCNC[C@H]1F , its log10(TGI) = 1.47

Fill in: HOP-92 NSCLC log10(TGI) for COc1cc2cc(C(=O)Nc3cc4n(n3)-c3ccccc3C4)[nH]c2c(OC)c1OC = 1.22

I looked up C[C@]12CC[C@@H]3c4cc(O)c(O)cc4CC[C@H]3[C@@H]1CC[C@@H]2O and its log10(TGI) for HOP-92 NSCLC was 1.46

The reported log10(TGI) value, HOP-92 NSCLC, for CCC(O)C1Cc2c(C)cc3c(c2O1)C(=O)c1ccccc1C3=O (stereo unspecified) reads 1.99

Value (log10(TGI), HOP-92 NSCLC) for record Cc1ccc2c(c1)c(Sc1ccc(C(=O)NO)cc1)c1n2CN(C)CC1 = 0.80

Case CC[C@@H](C(=O)[C@H](C)[C@H](O)[C@@H](C)[C@H]1O[C@H]([C@@H](CC)C(=O)N(CC)CC)CC[C@H]1C)C1O[C@]2(C=C[C@@H](O)[C@]3(CC[C@@](C)([C@H]4CC[C@](O)(CC)[C@H](C)O4)O3)O2)[C@H](C)C[C@@H]1C (stereo partly specified) , HOP-92 NSCLC, log10(TGI) recorded as 0.73

Item CC/C(=C(/c1ccc(O)cc1)c1ccc(OCCN)cc1)c1ccccc1 was tested on HOP-92 NSCLC; the reported log10(TGI) is 0.77
